System: TNFα
Protocol Notes: IRAK4 Monocyte TNFα Cell Based Assay
Set-up: species or system human
Run Parameters: Homo sapiens, Monocyte, read-out: EC50 MONO TNF HTRF
Measured Quantity: EC50 (nM)

[[record]]
smiles_str = "CC(C)Nc1cc(-c2ccc3cc(C#N)cnn23)ncc1-c1nnc(N2CC3CCC(C2)N3C(=O)C2CC2)s1"
measured_quantity = "EC50"
endpoint_value = 5.1

[[record]]
smiles_str = "CC(C)Nc1cc(-c2ccc3cc(C#N)cnn23)ncc1-c1nnc(N2C3CC2CN(C(=O)N2CCN(C)CC2)C3)s1"
measured_quantity = "EC50"
endpoint_value = 11.3

[[record]]
smiles_str = "CC(C)Nc1cc(-c2ccc3cc(C#N)cnn23)ncc1-c1nnc(CC(C)(C)O)s1"
measured_quantity = "EC50"
endpoint_value = 68.3

[[record]]
smiles_str = "N#Cc1cnn2c(-c3cc(NC4CCOCC4)c(-c4nnc(C56CCC(N)(CC5)CC6)s4)cn3)ccc2c1"
measured_quantity = "EC50"
endpoint_value = 11

[[record]]
smiles_str = "CC(C)Nc1cc(-c2ccc3cc(C#N)cnn23)ncc1-c1nnc(N2CC3CC(C2)N3C(=O)CN=S(C)(C)=O)s1"
measured_quantity = "EC50"
endpoint_value = 18.4

[[record]]
smiles_str = "CC1(Nc2cc(-c3ccc4cc(C#N)cnn34)ncc2-c2nnc(N3CC4CC(C3)N4C(=O)C(C)(C)O)s2)COC1"
measured_quantity = "EC50"
endpoint_value = 13.1

[[record]]
smiles_str = "CC(C)Nc1cc(-c2ccc3cc(C#N)cnn23)ncc1-c1nnc(N2CC3CC(C2)N3C(=O)N2CCN(C)CC2)s1"
measured_quantity = "EC50"
endpoint_value = 20.6


---

System Under Test: IRAK4 enzyme (Homo sapiens (Human))
Protocol Notes: IRAK4 Biochemical Assay (TR-FRET, STK1 KinEASE)
Run Parameters: second part of Table 2, compounds 33-343; unit inferred; read-out: IC50 IRAK4-HTBS
pIC50: −log10 of the molar value.
Measured Quantity: pIC50

[[record]]
compound = "CC(C)(O)[C@H]1C[C@H]1c1nnc(-c2cnc(-c3ccc4cc(C#N)cnn34)cc2NC2COC2)s1 (single isomer, unassigned; isomer 4) [136 Isomer 4]"
system_under_test = "IRAK4 enzyme (Homo sapiens (Human))"
measured_quantity = "pIC50"
endpoint_value = 9.13

[[record]]
compound = "CC(C)Nc1cc(-c2ccc3cc(C#N)cnn23)ncc1-c1nnc(N2C[C@H]3CC[C@@H](C2)[C@@H]3NC(=O)[C@H](C)O)s1"
system_under_test = "IRAK4 enzyme (Homo sapiens (Human))"
measured_quantity = "pIC50"
endpoint_value = 9.03

[[record]]
compound = "CC(=O)N[C@H]1CCN(c2nnc(-c3cnc(-c4ccc5cc(C#N)cnn45)cc3NC3(C)COC3)s2)CC1(F)F (single isomer, unassigned; isomer 2) [147 Isomer 2]"
system_under_test = "IRAK4 enzyme (Homo sapiens (Human))"
measured_quantity = "pIC50"
endpoint_value = 9.21

[[record]]
compound = "CC(C)Nc1cc(-c2ccc3cc(C#N)cnn23)ncc1-c1nnc([C@H]2C[C@@H]2C(C)(C)O)s1 (single isomer, unassigned; isomer 2) [132 Isomer 2]"
system_under_test = "IRAK4 enzyme (Homo sapiens (Human))"
measured_quantity = "pIC50"
endpoint_value = 8.89


---

System: TNFα
Protocol Notes: IRAK4 Monocyte TNFα Cell Based Assay
Parameters: species or system human
Run Parameters: Homo sapiens, Monocyte, human monocytes, LPS stimulated; compounds 1-32; read-out: EC50 TNF
pEC50: −log10 of the molar value.
Reported pEC50 values for the following compounds.
Measured Quantity: pEC50

[[record]]
smiles_str = "CC(C)Nc1cc(-c2ccc3cc(C#N)cnn23)ncc1-c1nnc(CCN)s1"
relation_sign = "="
endpoint_value = 6.52

[[record]]
smiles_str = "Cc1nnc(-c2cnc(-c3ccc4cc(C#N)cnn34)cc2NC(C)C)s1"
relation_sign = "="
endpoint_value = 5.84

[[record]]
smiles_str = "CC(C)Nc1cc(-c2ccc3cc(C#N)cnn23)ncc1-c1nnc(N2CCC3(CC2)COC3)s1"
relation_sign = "="
endpoint_value = 7.64

[[record]]
smiles_str = "CC(C)Nc1cc(-c2ccc3cc(C#N)cnn23)ncc1-c1nnc(C(=O)N2CCOCC2)s1"
relation_sign = "<"
endpoint_value = 5.00

[[record]]
smiles_str = "CC(C)Nc1cc(-c2ccc3cc(C#N)cnn23)ncc1-c1nnc(C(=O)NCCCN2CCCCC2)s1"
relation_sign = "="
endpoint_value = 5.93

[[record]]
smiles_str = "CC(=O)NC1CCN(C(=O)c2nnc(-c3cnc(-c4ccc5cc(C#N)cnn45)cc3NC(C)C)s2)CC1"
relation_sign = "="
endpoint_value = 5.12

[[record]]
smiles_str = "CC(C)Nc1cc(-c2ccc3cc(C#N)cnn23)ncc1-c1nnc(C(=O)N2CC[C@H](O)C2)s1"
relation_sign = "="
endpoint_value = 7.46

[[record]]
smiles_str = "CC(=O)NC1CCN(c2nnc(-c3cnc(-c4ccc5cc(C#N)cnn45)cc3NC(C)C)s2)CC1"
relation_sign = "="
endpoint_value = 7.72


---

System Under Test: IRAK4 enzyme (Homo sapiens (Human))
Protocol Notes: IRAK4 Biochemical Assay (TR-FRET, STK1 KinEASE)
Run Parameters: second part of Table 2, compounds 33-343; unit inferred; read-out: IC50 IRAK4-HTBS
pIC50: −log10 of the molar value.
Reported pIC50 values for the following compounds.
Measured Quantity: pIC50

[[record]]
compound = "CC(=O)N[C@@H]1CCN(c2nnc(-c3cnc(-c4ccc5cc(C#N)cnn45)cc3NC3(C)COC3)s2)CC1(F)F (single isomer, unassigned; isomer 1) [147 Isomer 1]"
system_under_test = "IRAK4 enzyme (Homo sapiens (Human))"
endpoint_value = 9.20

[[record]]
compound = "CC(C)Nc1cc(-c2ccc3cc(C#N)cnn23)ncc1-c1nnc(N2C[C@H]3CC[C@@H](C2)[C@@H]3NC(=O)C2CN(C)C2)s1 [Example 102]"
system_under_test = "IRAK4 enzyme (Homo sapiens (Human))"
endpoint_value = 8.91

[[record]]
compound = "CC(C)(O)[C@H]1C[C@@H]1c1nnc(-c2cnc(-c3ccc4cc(C#N)cnn34)cc2NC2COC2)s1 (single isomer, unassigned; isomer 1) [136 Isomer 1]"
system_under_test = "IRAK4 enzyme (Homo sapiens (Human))"
endpoint_value = 9.24

[[record]]
compound = "CC(C)Nc1cc(-c2ccc3cc(C#N)cnn23)ncc1-c1nnc(CCN)s1 [Example 212]"
system_under_test = "IRAK4 enzyme (Homo sapiens (Human))"
endpoint_value = 9.00

[[record]]
compound = "CNC(=O)[C@@H]1CCCN1c1nnc(-c2cnc(-c3ccc4cc(C#N)cnn34)cc2NC2COC2)s1 [Compound 332]"
system_under_test = "IRAK4 enzyme (Homo sapiens (Human))"
endpoint_value = 8.79

[[record]]
compound = "CC(=O)N[C@H]1CC[C@@H](c2nnc(-c3cnc(-c4ccc5cc(C#N)cnn45)cc3NC(C)C)s2)CC1 [Example 127]"
system_under_test = "IRAK4 enzyme (Homo sapiens (Human))"
endpoint_value = 9.19


---

Tested on: TNFα
Protocol Notes: IRAK4 Monocyte TNFα Cell Based Assay
Set-up: species or system human
Run Parameters: human monocytes, LPS stimulated; compounds 1-32; read-out: EC50 TNF
Measured Quantity: EC50

[[record]]
smiles_str = "CC(C)Nc1cc(-c2ccc3cc(C#N)cnn23)ncc1-c1nnc(C2CCOCC2)s1"
system_under_test = "TNFα"
measured_quantity = "EC50"
endpoint_value = "211 nM"


---

System Under Test: IRAK4 enzyme (Homo sapiens (Human), UniProt Q9NWZ3)
Sequence (Q9NWZ3 whole entry): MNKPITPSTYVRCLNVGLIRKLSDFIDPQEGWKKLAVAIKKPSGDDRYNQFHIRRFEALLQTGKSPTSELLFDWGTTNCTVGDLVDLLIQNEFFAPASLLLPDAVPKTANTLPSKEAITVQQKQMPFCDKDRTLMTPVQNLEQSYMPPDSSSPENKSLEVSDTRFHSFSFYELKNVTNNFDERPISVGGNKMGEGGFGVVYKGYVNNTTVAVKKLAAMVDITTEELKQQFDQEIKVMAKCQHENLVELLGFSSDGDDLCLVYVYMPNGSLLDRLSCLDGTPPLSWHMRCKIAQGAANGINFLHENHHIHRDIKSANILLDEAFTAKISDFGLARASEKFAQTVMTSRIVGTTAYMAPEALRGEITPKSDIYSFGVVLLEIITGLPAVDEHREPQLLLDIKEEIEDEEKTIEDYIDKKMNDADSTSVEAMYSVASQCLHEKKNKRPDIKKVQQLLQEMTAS
Protocol Notes: IRAK4 Biochemical Assay (TR-FRET, STK1 KinEASE)
Run Parameters: compounds 1-32; read-out: IC50 HTRF
Reported IC50 values for the following compounds.
Measured Quantity: IC50 (nM)

[[record]]
smiles_str = "CC(=O)N[C@H]1CC[C@H](c2nnc(-c3cnc(-c4ccc5cc(C#N)cnn45)cc3NCC#N)s2)CC1"
measurement_units = "nM"
relation_sign = "<"
endpoint_value = 1

[[record]]
smiles_str = "CC(=O)N[C@H]1CC[C@H](c2nnc(-c3cnc(-c4ccc5cc(C#N)cnn45)cc3NC3COC3)s2)CC1"
measurement_units = "nM"
relation_sign = "<"
endpoint_value = 1

[[record]]
smiles_str = "CC(=O)N[C@H]1CC[C@H](c2nnc(-c3cnc(-c4ccc5cc(C#N)cnn45)cc3NC3(C)COC3)s2)CC1"
measurement_units = "nM"
relation_sign = "<"
endpoint_value = 1

[[record]]
smiles_str = "CC(C)Nc1cc(-c2ccc3cc(C#N)cnn23)ncc1-c1nnc(C(=O)N2CC[C@@H](O)C2)s1"
measurement_units = "nM"
relation_sign = "="
endpoint_value = 1

[[record]]
smiles_str = "CNc1cc(-c2ccc3cc(C#N)cnn23)ncc1-c1nnc([C@H]2CC[C@H](NC(C)=O)CC2)s1"
measurement_units = "nM"
relation_sign = "<"
endpoint_value = 1

[[record]]
smiles_str = "CC(C)Nc1cc(-c2ccc3cc(C#N)cnn23)ncc1-c1nnc(C(=O)N2CC[C@H](O)C2)s1"
measurement_units = "nM"
relation_sign = "<"
endpoint_value = 1

[[record]]
smiles_str = "CNC(=O)c1nnc(-c2cnc(-c3ccc4cc(C#N)cnn34)cc2NC(C)C)s1"
measurement_units = "nM"
relation_sign = "<"
endpoint_value = 1

[[record]]
smiles_str = "CC(=O)NC1CCN(c2nnc(-c3cnc(-c4ccc5cc(C#N)cnn45)cc3NC(C)C)s2)CC1"
measurement_units = "nM"
relation_sign = "<"
endpoint_value = 1

[[record]]
smiles_str = "CC(C)Nc1cc(-c2ccc3cc(C#N)cnn23)ncc1-c1nnc(CCN)s1"
measurement_units = "nM"
relation_sign = "="
endpoint_value = 1

[[record]]
smiles_str = "CC(C)Nc1cc(-c2ccc3cc(C#N)cnn23)ncc1-c1nnc(-n2cccc2)s1"
measurement_units = "nM"
relation_sign = "="
endpoint_value = 1.7

[[record]]
smiles_str = "CC(C)Nc1cc(-c2ccc3cc(C#N)cnn23)ncc1-c1nnc(CCNC(=O)OC(C)(C)C)s1"
measurement_units = "nM"
relation_sign = "="
endpoint_value = 1.5

[[record]]
smiles_str = "CC(C)Nc1cc(-c2ccc3cc(C#N)cnn23)ncc1-c1nncs1"
measurement_units = "nM"
relation_sign = "="
endpoint_value = 1

[[record]]
smiles_str = "CC(C)Nc1cc(-c2ccc3cc(C#N)cnn23)ncc1-c1nnc(-c2ccc(N)cc2)s1"
measurement_units = "nM"
relation_sign = "="
endpoint_value = 9

[[record]]
smiles_str = "CC(C)Nc1cc(-c2ccc3cc(C#N)cnn23)ncc1-c1nnc(CCC(C)(C)O)s1"
measurement_units = "nM"
relation_sign = "<"
endpoint_value = 1

[[record]]
smiles_str = "CC(=O)N[C@H]1CCN(C(=O)c2nnc(-c3cnc(-c4ccc5cc(C#N)cnn45)cc3NC(C)C)s2)C1"
measurement_units = "nM"
relation_sign = "<"
endpoint_value = 1

[[record]]
smiles_str = "CC(C)Nc1cc(-c2ccc3cc(C#N)cnn23)ncc1-c1nnc(CO)s1"
measurement_units = "nM"
relation_sign = "="
endpoint_value = 1

